Listing of recorded IC50 by entry.
# Assay target: ATM (Homo sapiens (Human))
# Sequence (Q13315 whole entry): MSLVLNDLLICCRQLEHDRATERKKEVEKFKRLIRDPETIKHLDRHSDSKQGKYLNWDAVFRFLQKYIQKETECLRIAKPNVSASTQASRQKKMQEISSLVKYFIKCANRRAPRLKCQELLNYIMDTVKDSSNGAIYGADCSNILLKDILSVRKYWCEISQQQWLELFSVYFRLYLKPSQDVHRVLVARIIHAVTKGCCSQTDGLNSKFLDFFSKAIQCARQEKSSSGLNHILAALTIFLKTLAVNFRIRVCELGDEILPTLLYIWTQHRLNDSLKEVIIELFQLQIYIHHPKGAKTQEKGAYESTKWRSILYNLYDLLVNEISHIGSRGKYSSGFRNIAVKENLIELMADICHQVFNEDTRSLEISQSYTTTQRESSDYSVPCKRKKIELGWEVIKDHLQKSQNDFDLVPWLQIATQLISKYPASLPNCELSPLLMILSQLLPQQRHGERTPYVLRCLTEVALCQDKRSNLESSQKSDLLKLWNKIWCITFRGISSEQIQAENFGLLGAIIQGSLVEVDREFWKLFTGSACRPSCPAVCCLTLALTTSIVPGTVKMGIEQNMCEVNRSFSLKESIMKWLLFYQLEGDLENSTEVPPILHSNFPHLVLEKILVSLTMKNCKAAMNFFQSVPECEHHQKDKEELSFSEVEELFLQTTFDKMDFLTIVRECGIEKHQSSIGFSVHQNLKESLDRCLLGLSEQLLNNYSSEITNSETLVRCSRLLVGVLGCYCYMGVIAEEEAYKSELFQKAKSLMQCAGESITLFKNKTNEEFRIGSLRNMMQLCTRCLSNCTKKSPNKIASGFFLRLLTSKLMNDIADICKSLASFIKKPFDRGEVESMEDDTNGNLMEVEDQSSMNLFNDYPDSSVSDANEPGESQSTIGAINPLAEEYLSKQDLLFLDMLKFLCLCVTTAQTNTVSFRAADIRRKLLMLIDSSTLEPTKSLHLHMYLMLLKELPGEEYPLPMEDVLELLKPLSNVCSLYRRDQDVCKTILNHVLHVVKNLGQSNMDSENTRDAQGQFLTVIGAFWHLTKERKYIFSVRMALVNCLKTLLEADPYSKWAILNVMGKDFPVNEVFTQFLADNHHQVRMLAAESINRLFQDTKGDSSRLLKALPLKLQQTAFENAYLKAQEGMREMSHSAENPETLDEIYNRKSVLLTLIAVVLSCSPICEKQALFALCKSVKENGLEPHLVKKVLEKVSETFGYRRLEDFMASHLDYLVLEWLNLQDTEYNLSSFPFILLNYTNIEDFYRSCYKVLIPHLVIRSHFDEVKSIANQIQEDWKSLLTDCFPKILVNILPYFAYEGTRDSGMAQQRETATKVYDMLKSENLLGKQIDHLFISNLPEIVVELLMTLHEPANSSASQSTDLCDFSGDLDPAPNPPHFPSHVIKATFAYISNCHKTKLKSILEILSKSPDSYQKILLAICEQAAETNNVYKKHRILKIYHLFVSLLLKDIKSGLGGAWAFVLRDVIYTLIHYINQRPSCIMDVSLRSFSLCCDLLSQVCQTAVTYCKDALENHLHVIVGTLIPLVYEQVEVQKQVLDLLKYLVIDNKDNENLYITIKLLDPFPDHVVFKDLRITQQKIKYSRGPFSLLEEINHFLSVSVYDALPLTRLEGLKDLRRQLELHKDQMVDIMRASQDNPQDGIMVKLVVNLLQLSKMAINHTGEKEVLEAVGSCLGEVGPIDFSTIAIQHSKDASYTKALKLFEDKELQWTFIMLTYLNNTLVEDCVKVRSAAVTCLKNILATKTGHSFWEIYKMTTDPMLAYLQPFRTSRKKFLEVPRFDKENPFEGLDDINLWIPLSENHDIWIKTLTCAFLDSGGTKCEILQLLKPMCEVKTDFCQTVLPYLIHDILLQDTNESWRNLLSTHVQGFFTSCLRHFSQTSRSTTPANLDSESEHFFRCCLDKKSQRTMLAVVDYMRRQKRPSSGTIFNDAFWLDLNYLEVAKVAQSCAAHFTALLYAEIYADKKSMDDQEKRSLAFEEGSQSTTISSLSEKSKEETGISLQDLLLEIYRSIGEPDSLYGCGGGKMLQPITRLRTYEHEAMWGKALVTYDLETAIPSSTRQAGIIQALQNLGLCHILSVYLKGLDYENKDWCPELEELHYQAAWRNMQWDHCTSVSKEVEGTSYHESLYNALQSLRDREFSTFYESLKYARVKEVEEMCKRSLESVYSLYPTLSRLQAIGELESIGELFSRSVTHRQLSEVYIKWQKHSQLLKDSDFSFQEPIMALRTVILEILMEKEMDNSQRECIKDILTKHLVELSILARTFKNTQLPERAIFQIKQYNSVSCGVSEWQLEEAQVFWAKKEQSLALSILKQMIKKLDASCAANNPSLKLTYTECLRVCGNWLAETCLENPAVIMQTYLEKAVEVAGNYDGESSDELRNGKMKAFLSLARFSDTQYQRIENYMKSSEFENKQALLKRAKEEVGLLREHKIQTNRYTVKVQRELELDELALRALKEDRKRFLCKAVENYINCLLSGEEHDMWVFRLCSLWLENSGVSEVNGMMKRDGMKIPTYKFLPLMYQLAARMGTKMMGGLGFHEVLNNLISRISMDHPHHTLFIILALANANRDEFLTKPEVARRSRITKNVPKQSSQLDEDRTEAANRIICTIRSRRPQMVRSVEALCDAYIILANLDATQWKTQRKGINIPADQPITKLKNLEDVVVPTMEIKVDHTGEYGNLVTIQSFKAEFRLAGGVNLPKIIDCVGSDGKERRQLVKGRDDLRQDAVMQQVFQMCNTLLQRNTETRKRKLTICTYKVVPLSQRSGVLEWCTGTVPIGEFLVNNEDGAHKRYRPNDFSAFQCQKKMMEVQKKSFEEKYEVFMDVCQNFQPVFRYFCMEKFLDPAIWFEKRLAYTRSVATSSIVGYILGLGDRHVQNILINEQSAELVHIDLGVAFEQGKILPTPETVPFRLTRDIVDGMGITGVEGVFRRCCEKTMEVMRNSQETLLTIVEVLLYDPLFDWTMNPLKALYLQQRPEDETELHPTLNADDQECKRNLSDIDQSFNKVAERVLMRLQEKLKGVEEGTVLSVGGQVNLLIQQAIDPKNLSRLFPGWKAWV
# Protocol text: ATM in Cell Western Assay (pKAP1 in etoposide-treated MCF-7 cells)
# Assay type: cell-based
# Condition description: pKAP1 in etoposide-treated MCF-7 cells
Where a name gives a salt, the structure may show the parent alone.

>>> recorded_value("CN1C(=O)C2(CCC2)c2c1cnc1cc(F)c(-c3cnc(N4CC(N(C)C)C4)c(NS(=O)(=O)C(F)F)c3)cc21 [Example 341, formate]")
"> 100 nM"
>>> recorded_value("CC(C)NCCOc1ncc(-c2cc3c(cc2F)ncc2c3[C@]3(C[C@H](n4ccccc4=O)C3)C(=O)N2C)cc1NS(C)(=O)=O")
"> 100 nM"

// switching to the query compound
Report IC50 for COc1ccc([C@H]2C[C@]3(C2)C(=O)N(C)c2cnc4cc(F)c(-c5cnc(OCCNC(C)C)c(NS(C)(=O)=O)c5)cc4c23)cn1 tested on ATM (Homo sapiens (Human)). 1 to 100 nM
